# system-tested: HLA-C*06:02
# assay-name: IEDB peptide-MHC binding, purified MHC/direct/fluorescence; filed as Kd, often an IC50 or EC50 that approximates it; bounds were set here for any values at or beyond the usual limits of such assays
# assay-conditions: source organism: Escherichia coli O157:H7 str. EDL933
measured-endpoint: Kd

Sample "RRNDVARIF" — what was its Kd? 22 nM

###

# system-tested: HLA-B*18:01
# assay-name: IEDB peptide-MHC binding, purified MHC/direct/fluorescence; filed as Kd, often an IC50 or EC50 that approximates it; bounds were set here for any values at or beyond the usual limits of such assays
# assay-conditions: source organism: Rickettsia sibirica 246
pKd: −log10 of the molar value.
measured-endpoint: pKd

Sample "APVESMALF" — what was its pKd? ≤ 4.70

###

Would you mind telling me the reported pKd of each entry?
# system-tested: HLA-A*69:01
# assay-name: IEDB peptide-MHC binding, purified MHC/direct/fluorescence; filed as Kd, often an IC50 or EC50 that approximates it; bounds were set here for any values at or beyond the usual limits of such assays
# assay-conditions: source organism: Mycobacterium tuberculosis
pKd is defined as minus the log10 of a concentration measured in mol/L.

Sample "LLHEVGITV" — what was its pKd? 5.72

Sample "FLMGFNRDV" — what was its pKd? 5.76

Sample "FLADYGWRL" — what was its pKd? 6.18

Sample "LPAQLTATA" — what was its pKd? 6.74

###

# system-tested: HLA-B*27:05
# assay-name: IEDB peptide-MHC binding, purified MHC/direct/fluorescence; filed as Kd, often an IC50 or EC50 that approximates it; bounds were set here for any values at or beyond the usual limits of such assays
# assay-conditions: source organism: Giardia lamblia ATCC 50803
pKd: −log10 of the molar value.
measured-endpoint: pKd

Sample "SDRLHHDPL" — what was its pKd? ≤ 4.70

Sample "QTSTLYDFY" — what was its pKd? ≤ 4.70

Sample "WSFLEDRVY" — what was its pKd? ≤ 4.70

###

# system-tested: HLA-B*15:09
# assay-name: IEDB peptide-MHC binding, purified MHC/direct/fluorescence; filed as Kd, often an IC50 or EC50 that approximates it; bounds were set here for any values at or beyond the usual limits of such assays
# assay-conditions: source organism: Influenza A virus(A/swine/Shandong/fNY/2003(H9N2))
pKd: −log10 of the molar value.
measured-endpoint: pKd

Sample "ELVRKTRFL" — what was its pKd? ≤ 4.70

###

# system-tested: HLA-B*45:06
# assay-name: IEDB peptide-MHC binding, purified MHC/competitive/fluorescence; filed as Kd, often an IC50 or EC50 that approximates it; bounds were set here for any values at or beyond the usual limits of such assays
# assay-conditions: source organism: Burkholderia mallei SAVP1
measured-endpoint: Kd

Report Kd for "YARRYFYPL" tested on HLA-B*45:06. ≥ 5 µM

###

# system-tested: HLA-A*23:01
# assay-name: IEDB peptide-MHC binding, purified MHC/competitive/fluorescence; filed as Kd, often an IC50 or EC50 that approximates it; bounds were set here for any values at or beyond the usual limits of such assays
# assay-conditions: source organism: Burkholderia pseudomallei K96243
measured-endpoint: Kd

Sample "DELWRGLLA" — what was its Kd? ≥ 20 µM

###

# system-tested: HLA-A*31:01
# assay-name: IEDB peptide-MHC binding, purified MHC/direct/fluorescence; filed as Kd, often an IC50 or EC50 that approximates it; bounds were set here for any values at or beyond the usual limits of such assays
# assay-conditions: source organism: Entamoeba histolytica
measured-endpoint: Kd

Sample "DFGYATMAK" — what was its Kd? ≥ 20 µM

###

# system-tested: HLA-A*01:01
# assay-name: IEDB peptide-MHC binding, purified MHC/competitive/radioactivity; filed as Kd, often an IC50 or EC50 that approximates it; bounds were set here for any values at or beyond the usual limits of such assays
# assay-conditions: source organism: SARS coronavirus Tor2
Rule: Kd below 900 nM gives Y, anything at or above gives N.

For this sequence, is Kd lower than 900 nM? "DEEGNLLDSY" N

For this sequence, is Kd lower than 900 nM? "RFLYIIKLVF" N

For this sequence, is Kd lower than 900 nM? "TSSGDATTAY" Y

For this sequence, is Kd lower than 900 nM? "FYFTNDVSF" N

For this sequence, is Kd lower than 900 nM? "HMVVKSALL" N

For this sequence, is Kd lower than 900 nM? "DYAEISFML" N

For this sequence, is Kd lower than 900 nM? "YIESKRGVY" Y

For this sequence, is Kd lower than 900 nM? "VYALCTLLHL" N

For this sequence, is Kd lower than 900 nM? "HHANEYRQY" N

For this sequence, is Kd lower than 900 nM? "YYSLLMPIL" N

For this sequence, is Kd lower than 900 nM? "ILSDDAVVCY" Y

For this sequence, is Kd lower than 900 nM? "DSKEGFFTY" Y

For this sequence, is Kd lower than 900 nM? "IFFASFYYIW" N

For this sequence, is Kd lower than 900 nM? "EWSVATFYLF" N

For this sequence, is Kd lower than 900 nM? "TYHPNCINCL" N

For this sequence, is Kd lower than 900 nM? "LAAEWVLAY" Y

For this sequence, is Kd lower than 900 nM? "HSYGIDLKSY" Y

For this sequence, is Kd lower than 900 nM? "GFELTSMKY" N

For this sequence, is Kd lower than 900 nM? "EHSWNADLY" N

For this sequence, is Kd lower than 900 nM? "LLEIKDKEQY" N

###

Would you mind telling me the reported Kd of each entry?
# system-tested: HLA-A*30:02
# assay-name: IEDB peptide-MHC binding, purified MHC/competitive/radioactivity; filed as Kd, often an IC50 or EC50 that approximates it; bounds were set here for any values at or beyond the usual limits of such assays
# assay-conditions: source organism: Dengue virus 2 Jamaica/1409/1983
Field: numeric (µM). Do not append units.

Sample "RVAAEGINY" — what was its Kd? 0.0484

Sample "LSRKTFDSEY" — what was its Kd? 0.627

###

# system-tested: HLA-A*24:03
# assay-name: IEDB peptide-MHC binding, purified MHC/direct/fluorescence; filed as Kd, often an IC50 or EC50 that approximates it; bounds were set here for any values at or beyond the usual limits of such assays
# assay-conditions: source organism: Giardia lamblia ATCC 50803
measured-endpoint: Kd

Report Kd for "WSFLEDRVY" tested on HLA-A*24:03. ≥ 20 µM

Report Kd for "YTFFFTQYF" tested on HLA-A*24:03. 0.0285 µM

Report Kd for "QTSTLYDFY" tested on HLA-A*24:03. ≥ 20 µM

###

# system-tested: HLA-B*58:01
# assay-name: IEDB peptide-MHC binding, purified MHC/direct/fluorescence; filed as Kd, often an IC50 or EC50 that approximates it; bounds were set here for any values at or beyond the usual limits of such assays
# assay-conditions: source organism: Influenza A virus (A/Duck/Shantou/2088/01(H9N2))
measured-endpoint: Kd

Sample "EEMATKADY" — what was its Kd? ≥ 20 µM

###

# system-tested: HLA-B*08:01
# assay-name: IEDB peptide-MHC binding, purified MHC/direct/fluorescence; filed as Kd, often an IC50 or EC50 that approximates it; bounds were set here for any values at or beyond the usual limits of such assays
# assay-conditions: source organism: Vibrio parahaemolyticus
measured-endpoint: Kd

Sample "VQGYERIMY" — what was its Kd? ≥ 20 µM

###

# system-tested: HLA-B*57:01
# assay-name: IEDB peptide-MHC binding, purified MHC/direct/fluorescence; filed as Kd, often an IC50 or EC50 that approximates it; bounds were set here for any values at or beyond the usual limits of such assays
# assay-conditions: source organism: Giardia lamblia ATCC 50803
measured-endpoint: Kd (nM)
Field: numeric (nM). Do not append units.

Sample "LASSSYEQF" — what was its Kd? 188

Sample "IASPILFPF" — what was its Kd? 14.8

###

# system-tested: HLA-A*68:02
# assay-name: IEDB peptide-MHC binding, purified MHC/competitive/radioactivity; filed as Kd, often an IC50 or EC50 that approximates it; bounds were set here for any values at or beyond the usual limits of such assays
# assay-conditions: source organism: Mammarenavirus whitewaterense
measured-endpoint: Kd (µM)
Field: numeric (µM). Do not append units.

Sample "ALNIALIAV" — what was its Kd? 3.09

###

# system-tested: HLA-B*27:05
# assay-name: IEDB peptide-MHC binding, purified MHC/direct/fluorescence; filed as Kd, often an IC50 or EC50 that approximates it; bounds were set here for any values at or beyond the usual limits of such assays
# assay-conditions: source organism: Haemophilus influenzae
measured-endpoint: Kd

Sample "FLADYRGKT" — what was its Kd? ≥ 20 µM
